Reported IC50 values for the following compounds.
# study system: human TLR8 (Homo sapiens)
# Construct: host or cells: HEK-Blue cells
# Sequence (Q9NR97 27-1041): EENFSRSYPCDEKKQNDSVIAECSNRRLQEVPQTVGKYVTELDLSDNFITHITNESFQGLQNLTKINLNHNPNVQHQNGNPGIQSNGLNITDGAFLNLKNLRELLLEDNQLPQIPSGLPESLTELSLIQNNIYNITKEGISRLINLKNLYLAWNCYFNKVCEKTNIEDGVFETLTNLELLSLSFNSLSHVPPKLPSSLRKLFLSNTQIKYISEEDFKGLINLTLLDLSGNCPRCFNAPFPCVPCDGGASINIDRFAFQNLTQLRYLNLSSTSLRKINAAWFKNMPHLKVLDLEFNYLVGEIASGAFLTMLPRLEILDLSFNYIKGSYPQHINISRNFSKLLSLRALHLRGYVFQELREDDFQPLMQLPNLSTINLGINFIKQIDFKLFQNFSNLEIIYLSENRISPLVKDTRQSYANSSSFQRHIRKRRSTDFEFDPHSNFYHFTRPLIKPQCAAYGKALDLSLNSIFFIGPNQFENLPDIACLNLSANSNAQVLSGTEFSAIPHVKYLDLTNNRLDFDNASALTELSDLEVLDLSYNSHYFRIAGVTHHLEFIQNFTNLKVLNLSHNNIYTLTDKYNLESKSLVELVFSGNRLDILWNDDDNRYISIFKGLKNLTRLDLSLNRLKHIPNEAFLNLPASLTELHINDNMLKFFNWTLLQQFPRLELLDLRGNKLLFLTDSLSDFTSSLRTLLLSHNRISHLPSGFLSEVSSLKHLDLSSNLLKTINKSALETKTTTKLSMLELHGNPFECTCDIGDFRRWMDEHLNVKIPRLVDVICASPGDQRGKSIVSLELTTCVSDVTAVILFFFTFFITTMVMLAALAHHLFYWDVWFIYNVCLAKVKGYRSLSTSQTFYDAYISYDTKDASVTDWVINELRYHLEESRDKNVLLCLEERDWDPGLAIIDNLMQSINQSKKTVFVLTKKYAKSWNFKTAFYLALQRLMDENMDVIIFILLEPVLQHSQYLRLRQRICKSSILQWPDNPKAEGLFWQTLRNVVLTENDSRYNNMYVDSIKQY
# assay overview: TLR8 inhibition reporter assay (HEK-Blue cells, SEAP reporter, R848 stimulation)
# Format: cell-based
# setup conditions: HEK-Blue cells overexpressing human TLR8, SEAP reporter, R848 15.9 μM; read-out: TLR8 IC50
// note: answer is a bare numeric in nM

// known answers, use as guide
compound	data value
COC1CN(C2CCC(c3nc4c(C(C)C)c(-c5cn6ncnc6c(C)c5C)[nH]c4s3)CC2)C1 (single isomer, unassigned) [Example 189]	5.18
Cc1c(-c2[nH]c3sc(C4CCNCC4)nc3c2C(C)C)cn2ncnc2c1C	2.66
COc1cc(-c2[nH]c3sc(C4CCC(N(C)CC(=O)N(C)C)CC4)nc3c2C(C)C)cn2ncnc12 (single isomer, unassigned) [Example 162]	15.7
Cc1cc2ncnn2cc1-c1[nH]c2sc(C3CCC(N4CCNC(=O)C4)CC3)nc2c1C(C)C (single isomer, unassigned) [Example 148]	9.93
Cc1c(-c2[nH]c3sc(C4CCC(N5CCC5)CC4)nc3c2C(C)C)cn2ncnc2c1C (single isomer, unassigned) [Example 217]	5.3

[in] # IC50 lookup, item Cc1c(-c2[nH]c3sc(C4CCC(NC(C)C)CC4)nc3c2C(C)C)cn(C)c(=O)c1C (single isomer, unassigned) [Example 253]
[out] 3.01

[in] Check Cc1cc(-c2[nH]c3sc(C(=O)N4CCCOCC4)nc3c2C(C)C)cn2ncnc12 too.
[out] 529

[in] Check Cc1c(-c2[nH]c3sc(C4CCC(NCC(C)(C)O)CC4)nc3c2C(C)C)cn(C)c(=O)c1C (single isomer, unassigned) [Example 251] too.
[out] 2.68

[in] Check Cc1c(-c2[nH]c3sc(N4CC5(CN(CCS(C)(=O)=O)C5)C4)nc3c2C(C)C)cn(C)c(=O)c1C too.
[out] 70

[in] Check COc1cc(-c2[nH]c3sc(C4CCN(CC(C)(C)C)CC4)nc3c2C(C)C)cn2ncnc12 too.
[out] 2.03

[in] Check Cc1c(-c2[nH]c3sc(CN4CC5(CCOCC5)C4)nc3c2C(C)C)cn2ncnc2c1C too.
[out] 124

[in] Check COc1cc(-c2[nH]c3sc(C4CCC(N(C)C(C)C)CC4)nc3c2C(C)C)cn2ncnc12 (single isomer, unassigned) [Example 89] too.
[out] 18.9

[in] Check Cc1c(-c2[nH]c3sc(CN4CC5(COC5)C4)nc3c2C(C)C)cn2ncnc2c1C too.
[out] 168

[in] Check Cc1c(-c2[nH]c3sc(C4CCC(N5CC(F)C5)CC4)nc3c2C(C)C)cn2ncnc2c1C (single isomer, unassigned) [Example 227] too.
[out] 11.4
